biological target: T1, IL-1β (UniProt P01584 117-269); test: Biacore, Fab periplasmic extract
T1 construct: Antigen of XPA23
ENDPOINT: fold difference in affinity against the original (fold)
Number in fold, nothing else.

Worked cases, answers included:
BINDER	QUANTITATIVE READOUT
XPA23 heavy chain Y32L (Fab, V domains shown, Fab, periplasmic extract; also called C5A Y32L) VH: EVQLLESGGGLVQPGGSLRLSCAASGFTFSKLFMFWVRQAPGKGLEWVSVISPSGGMTRYADSVKGRFTISRDNSKNTLYLQMNSLRAEDTAVYYCARVGYGGNSDYWGQGTLVTVSS VL: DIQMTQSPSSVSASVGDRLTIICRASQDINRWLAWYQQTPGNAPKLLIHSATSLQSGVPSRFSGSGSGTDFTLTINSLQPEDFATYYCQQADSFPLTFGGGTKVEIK	0.75
XPA23 heavy chain F35P (Fab, V domains shown, Fab, periplasmic extract; also called C5A F35P) VH: EVQLLESGGGLVQPGGSLRLSCAASGFTFSKYFMPWVRQAPGKGLEWVSVISPSGGMTRYADSVKGRFTISRDNSKNTLYLQMNSLRAEDTAVYYCARVGYGGNSDYWGQGTLVTVSS VL: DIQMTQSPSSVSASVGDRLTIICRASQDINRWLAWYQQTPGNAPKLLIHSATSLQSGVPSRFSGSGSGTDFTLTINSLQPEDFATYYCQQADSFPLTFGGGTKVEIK	0.06

Continue with the binder presented below.
Incoming: Please report the measured fold difference in affinity against the original for XPA23 heavy chain S54T (Fab, V domains shown, Fab, periplasmic extract; also called C5A S54T) VH: EVQLLESGGGLVQPGGSLRLSCAASGFTFSKYFMFWVRQAPGKGLEWVSVISPTGGMTRYADSVKGRFTISRDNSKNTLYLQMNSLRAEDTAVYYCARVGYGGNSDYWGQGTLVTVSS VL: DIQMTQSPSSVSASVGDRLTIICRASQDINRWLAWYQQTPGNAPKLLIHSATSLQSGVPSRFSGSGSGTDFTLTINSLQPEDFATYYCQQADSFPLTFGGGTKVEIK
Outgoing: 0.14

Just for reference, patent US20110118131A1 is where these values come from.
